The values you see were collected from patent US5795977A.

For each entry below, report its SGOT value.
- Tested on: Female SA rats
- assayExplanation: Liver toxicity assay
- Assay type: in vivo
- conditionNotes: rat, i.v. infusion, total dose 75 μmole/kg, serum
Structures can show the parent of a compound that is named as a salt.
Unit IU/L implied. Number only.

Enquiry: Look up SGOT for this compound: C[C@H]1O[C@@H](n2cc(-c3ccccc3)c3c(Nc4ccc(CN(C)C)cc4)ncnc32)[C@H](O)[C@@H]1O [Compound 1]
Return: 75

Enquiry: Look up SGOT for this compound: CCN(CC)CCc1ccc(Nc2ncnc3c2c(-c2ccccc2)cn3[C@@H]2O[C@H](C)[C@@H](O)[C@H]2O)cc1 [Compound 6]
Return: 306

Enquiry: Look up SGOT for this compound: NC[C@H]1O[C@@H](n2nc(Br)c3c(N)ncnc32)[C@H](O)[C@@H]1O [REF.B, HCL, reference compound]
Return: 100

Enquiry: Look up SGOT for this compound: OC[C@@H]1O[C@@H](n2cc(-c3ccccc3)c3c(Nc4ccc(CCN5CCNCC5)cc4)ncnc32)[C@H](O)[C@@H]1O [Compound 12]
Return: 211
